All values here come from PubChem BioAssay (NCI).

- System: U251 CNS
- PROTOCOL DETAILS: NCI-60 one-dose screen, 48 h
- CONDITION SUMMARY: 10 µM unless noted
About 83,000 compounds went through this panel and 20% of them were active in at least one assay; those are over-represented in the sample as a whole. The source made the active and inactive calls. Rule for the calls: active = growth percent below 10; inactive = the rest.
Valid outcomes are listed here; reply with one: 1 = active, 0 = inactive

Use these answered entries as a reference point.
CNC(=O)Oc1ccccc1    0
CCC(CO)NC1CCCCC1 (stereo not given)    0
CCOC(=O)/C(C#N)=C/c1ccc(N(CCCl)CCCl)cc1    0
C[C@]12CC[C@H]3[C@@H](C[C@@H]4N=C(c5ccc(O)cc5)S[C@@]45C[C@H](O)CC[C@]35C)[C@@H]1CC[C@@H]2O    0
C/C(=C\C(=O)O[C@H]1[C@@H]2[C@H](C)CC[C@H]2[C@]2(C)O[C@@]1(C1CCCCC1)C[C@H]2OC(=O)CO)c1ccccc1    0
CCC(C)[C@H]1O[C@]2(C=C[C@@H]1C)C[C@@H]1C[C@@H](C/C=C(\C)[C@@H](OC3C[C@H](OC)C(O[C@H]4C[C@H](OC)[C@@H](O)[C@H](C)O4)[C@H](C)O3)[C@@H](C)/C=C/C=C3\CO[C@@H]4[C@H](O)C(C)=C[C@@H](C(=O)O1)[C@]34O)O2 (stereo not given in full)    1
Oc1c(Br)cc(Br)cc1Br.[Cu+2]    0
FC(F)=C(F)c1ccccc1    0

[ask] How did this test come out for CC1(C)N=C(N)N=C(N)N1c1ccc(CCCCc2ccc(S(=O)(=O)F)cc2)c(Cl)c1 ?
[reply] 1

[ask] Query: recorded result category for C[CH2][Pb]([CH2]C)([CH2]C)[O]C(=O)COc1ccccc1 in this test
[reply] 1

[ask] Please let me know the test result on file for CCC(C)/C=C(C)/C=C/C(=O)c1c(O)c(-c2ccc(O)cc2)c[nH]c1=O (stereo not given) .
[reply] 0

[ask] # lookup: test call for COC1=CC(=O)OC(CCc2ccc3c(c2)OCO3)C1 (stereo not given)
[reply] 0

[ask] Identify the outcome logged in this assay for the compound shown: Nc1cccc(CC(=O)Nc2ccc(S(=O)(=O)F)cc2)c1
[reply] 0

[ask] For this compound, state the assay outcome: CC1(C)N=C(N)N=C(N)N1c1ccc(CCC(=O)Nc2cccc(S(=O)(=O)F)c2)cc1
[reply] 0

[ask] What call does the record list for Clc1ccc(SSC(Cl)(Cl)Cl)cc1 ?
[reply] 0

[ask] In this assay, the call recorded for Cc1nnc([S-])s1.[Au+].c1ccc([PH+](c2ccccc2)c2ccccc2)cc1 was what?
[reply] 1

[ask] For this compound, state the assay outcome: COc1cccc2c1C(=O)c1c(O)c3c(c(O)c1C2=O)CC(O)(/C(C)=N/NC(=O)CCC(=O)N/N=C(\C)C1(O)Cc2c(O)c4c(c(O)c2C(OC2CC(N)C(O)C(C)O2)C1)C(=O)c1c(OC)cccc1C4=O)CC3OC1CC(N)C(O)C(C)O1 (stereo not given)
[reply] 1

[ask] GET /call?item= CCOC(=O)C1(c2ccccc2)CCN(CC(=O)c2ccc(NC(C)=O)cc2)CC1 returns the recorded outcome of this test.
[reply] 0

[ask] Could you please tell me the result logged for CC12CC[C@H](O)C=C1/C(=N/O)CC1C2CCC2(C)C1CC[C@@H]2O (stereo not given in full) in this assay?
[reply] 0

[ask] Tell me the assay call for NC(=O)NC(=O)CI please.
[reply] 0

###

- Test system: HL-60(TB) leukemia
- PROTOCOL DETAILS: NCI-60 one-dose screen, 48 h (100 = growth as untreated, 0 = no growth, -100 = all killed)
- CONDITION SUMMARY: 10 µM unless noted
About 83,000 compounds went through this panel and 20% of them were active in at least one assay; those are over-represented in the sample as a whole.
TEST READOUT: growth (%)
The answer is to be given in %; state only the numeric part.

Consider the reported growth for these compounds:
C[C@]12C[C@H](O)[C@H]3[C@@H](CCC4=CC(=O)CC[C@@]43C)[C@@H]1CC[C@@H]2C(=O)CO    81.8
COC(=O)c1nc(=S)[nH]c(C(=O)OC)c1C(=O)c1ccc(OC)cc1    107
COc1ccccc1-n1c(-c2sc(NC(C)=O)nc2C)n[nH]c1=S    101
CN1CCN(CCCOc2ccc3nc(Nc4ccc(F)c(F)c4)ccc3c2)CC1    46.8
COc1cc2cc(Oc3ccc(NC(=O)Nc4ccc(F)c(C(F)(F)F)c4)cc3)c(C)nc2cc1OCCN1CCCCC1    -24.5

[ask] Read the entry Nc1nc(N)c2c(n1)NC(c1cccc(Nc3ccnc4cc(C(F)(F)F)ccc34)c1)CC(c1ccc3c(c1)OCO3)=N2 (configuration not stated) and write its reported growth.
[reply] 76.5

[ask] Supply reported growth belonging to this compound: COc1ccc(C(c2ccc(OC)cc2)C(Cl)(Cl)Cl)cc1
[reply] 72.5

[ask] Dear colleague, please send me the reported growth for O=[N+]([O-])c1cc(NS(=O)(=O)c2ccccc2)ccc1NS(=O)(=O)c1ccccc1 when you can.
[reply] 113

###

- Tested on: HL-60(TB) leukemia
- PROTOCOL DETAILS: NCI-60 one-dose screen, 48 h (100 = growth as untreated, 0 = no growth, -100 = all killed)
- CONDITION SUMMARY: 10 µM unless noted
Compounds without any hit were thinned out: in the full panel of roughly 83,000, 20% have a hit.
TEST READOUT: growth (%)
Answer format: numeric, % implied, no suffix.

The examples below pair each entry with its known result.
CCOC(=O)C(C(=O)OCC)C1CCCCC1    105
Cc1ccc(/C=C2\Oc3ccc(O)c(O)c3C2=O)cc1    14.7
COC1=CC(c2ccc[nH]2)=N/C1=C\c1[nH]c(C)c(CC(=O)OCc2ccccc2)c1CCC(=O)OCc1ccccc1    -31.1
COC(=O)C(CCC(=O)CCl)N1C(=O)c2ccccc2C1=O (stereo not given)    84.5
CC(O)C(O)C(O)C(O)C(O)C(=O)NNc1ccccc1 (stereo not given)    116
N#Cc1ccccc1C#Cc1ccccc1C#Cc1ccc(OCCCCCCOc2ccc(C#Cc3ccccc3C#Cc3ccccc3C#N)cc2)cc1    99.7
CCCCc1ccc(N=Nc2ccc(OCC[N+](C)(C)C)cc2)cc1    25.2
Nc1nc(N)c2nc3c(nc2n1)CCCCCCCCCC3    33.4
CCN(CC)c1ccc2cc(NC(=O)OCCNC(=O)CCNC(=O)[C@H](CC(C)C)NC(=O)C(C)(C)NC(=O)C(C)(C)NC(=O)[C@H](CC(C)C)NC(=O)CCNC(=O)C(C)(C)NC(=O)[C@H](CC(C)C)NC(=O)CCNC(=O)[C@@](C)(CC)NC(=O)[C@H](C)NC(=O)CCNC(=O)C(C)(C)NC(=O)[C@H](C)NC(=O)[C@@H]3CCCN3C(=O)[C@@](C)(CC)NC(=O)[C@H](Cc3ccccc3)NC(=O)C3CCCN3C(=O)C(C)(C)NC(=O)C3CCCN3C(=O)C(C)(C)NC(C)=O)c(=O)oc2c1 (stereo not given in full)    -67.7
COc1ccc(-c2csc(NC(=O)CO[N+](=O)[O-])n2)cc1    107

[ask] Quote growth reported for O=C1OCC2=C1C(c1ccncc1)c1cc3c(cc1N2CCO)OCO3 (stereo not given) please.
[reply] 99.2

[ask] Retrieve growth measured for CCCCN(CCCC)CCCCCCCCC(O)c1cc2ccccc2c2ccccc12 (stereo not given) and print it.
[reply] 28.5

[ask] Query growth for Cc1ccsc1/C=C/C1=NCCCN1C
[reply] 126

[ask] Give recorded growth. COc1ccc(C(=O)Nc2cccc(C3CCc4c(cc(OC)c(OC)c4OC)O3)c2)cc1 (stereo not given)
[reply] 10.7

[ask] Identify the reported growth for the following entry. CC(C)n1nc(C#Cc2cccc(NC(=O)c3cccc(C(F)(F)F)c3)c2)c2c(N)ncnc21
[reply] -18.9

[ask] Determine its reported growth: CCSc1ncc(Br)c(Sc2nc(N)nc3nc[nH]c23)n1
[reply] 87.8

[ask] Note growth for the compound shown: CN(C)C1CCC(NC2=CC(=O)C=CC2=O)CC1 (stereo not given)
[reply] 114

[ask] Hello, please tell me recorded growth for this one: Cc1ccc(NC(=O)c2sc3nc4c(cc3c2N)C(=O)CCC4)cc1Cl
[reply] 106

[ask] Provide only the value of recorded growth for COc1cc2c(c3c1c(=O)c1cccc(F)c1n3C)C=CC(C)(C)O2
[reply] 100

[ask] In one line, give reported growth of the entry Cn1cc(-c2nc(-c3c[nH]c4ncc(F)cc34)cs2)c2cccnc21 .
[reply] 103

[ask] Provide one value: measured growth of COc1ccc(-c2c3c(nn2-c2ccc(N)cc2)CCc2cnoc2-3)cc1OC
[reply] 93.1

[ask] Determine from records and report growth for CCCCCCCCN(CCCCCCCC)C(=O)CCl
[reply] 105

[ask] Please look at this compound and report its growth: CS(=O)(=O)c1nccc(-c2c(-c3ccc(OCCc4ccccc4)cc3)nc3sccn23)n1
[reply] 89.5

[ask] State its growth for this compound: CC(=O)[C@H]1CC[C@H]2[C@@H]3CC[C@@H]4CC=C(C=O)C[C@]4(C)[C@H]3CC[C@]12C
[reply] 78.2

[ask] State, in one line, measured growth of NC1CCN(c2nc(Nc3cccc(C(F)(F)F)c3)c3c(=O)[nH]ccc3n2)CC1
[reply] -61.2

[ask] State its growth for this compound: O=S(=O)(NCCCNc1nccc(-c2c(-c3ccc(F)cc3)nc3sccn23)n1)c1ccc2ccccc2c1
[reply] 34.8

[ask] Read off the recorded growth for COc1ccc(-c2nc(N/N=C/c3ccco3)nc(N3CCOCC3)c2C#N)cc1
[reply] 94.8

[ask] // fetch growth given entry CCCCSc1ccc2nc(-c3ccc(OCCCN=C(N)N)cc3)cn2c1
[reply] 41.1

[ask] Name the recorded growth of the item O=C(CN1N=C(c2ccc(F)cc2)CCC1=O)Nc1nc2ccccc2s1 in your answer.
[reply] 8.9

[ask] Using known records, supply growth for Cc1nc2scc(-c3ccc(Cl)cc3)n2c(=O)c1CCN1CCOCC1
[reply] 99.6
